FYI, the data here is from ChEMBL document CHEMBL3259655.

Molecular target: Bile acid receptor (Homo sapiens)
Sequence (whole entry): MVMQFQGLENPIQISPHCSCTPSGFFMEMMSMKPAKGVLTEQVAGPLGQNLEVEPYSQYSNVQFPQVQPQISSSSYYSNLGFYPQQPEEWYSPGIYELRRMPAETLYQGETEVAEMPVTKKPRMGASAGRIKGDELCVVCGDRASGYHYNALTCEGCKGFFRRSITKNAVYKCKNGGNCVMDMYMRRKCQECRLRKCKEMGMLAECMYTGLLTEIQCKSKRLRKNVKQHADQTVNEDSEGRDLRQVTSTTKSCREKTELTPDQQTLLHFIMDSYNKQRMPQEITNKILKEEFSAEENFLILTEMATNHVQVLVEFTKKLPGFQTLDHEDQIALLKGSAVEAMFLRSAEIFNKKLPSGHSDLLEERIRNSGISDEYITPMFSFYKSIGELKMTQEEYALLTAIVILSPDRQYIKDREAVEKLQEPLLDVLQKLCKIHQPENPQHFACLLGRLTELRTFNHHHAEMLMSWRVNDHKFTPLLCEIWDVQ
Experiment: Agonist activity at human FXR expressed in human HeLa cells assessed as transactivation after 24 hrs by luciferase reporter gene assay relative to GW4064
Type: cell-based
Reported max activation values for the following molecules.
Answer in %, number only, no unit symbol.

mol	value.reported
O=C(O)CCCNC(=O)c1ccccc1NC(=O)/C=C/c1ccccc1	12.4
O=C(O)c1ccc(CNC(=O)c2ccccc2NC(=O)c2ccc3ccccc3c2)cc1	10
O=C(O)c1ccc(NC(=O)c2ccccc2NC(=O)c2ccc3ccccc3c2)cc1	23
O=C(O)CCCCNC(=O)c1ccccc1NC(=O)c1ccc2ccccc2c1	11.4

// switching to the query molecule
Data request: So what max activation did `O=C(O)CCCNC(=O)c1ccccc1NC(=O)c1ccc2ccccc2c1` get with Bile acid receptor (Homo sapiens)?
Data returned: 37

* * *

Test: Metabolic stability in Sprague-Dawley rat liver microsomes assessed as compound remaining at 10 uM after 15 mins by HPLC analysis
Type: ADME
Conditions: read-out: Stability
measured.property: remaining at 0.25 h, 10 µM (%)
Answer in %, number only, no unit symbol.

mol	remaining at 0.25 h, 10 µM, %
O=C(O)CCCNC(=O)c1ccccc1NC(=O)c1ccc2ccccc2c1	93

// switching to the query compound
Data request: Give the measured remaining at 0.25 h, 10 µM of `O=C(O)c1cccc(NC(=O)c2ccccc2NC(=O)c2ccc3ccccc3c2)c1` .
Data returned: 86

* * *

Test system: HeLa
Test: Cytotoxicity against human HeLa cells at >10 uM after 48 hrs by WST-1 assay
Assay type: cell-based
measured.property: Activity

mol	measured.property	value.reported
O=C(O)CCCNC(=O)c1ccccc1NC(=O)c1cccs1	Activity	Toxic
COc1ccc(C(=O)Nc2ccccc2C(=O)NCCCC(=O)O)cc1	Activity	Toxic
O=C(O)CCCNC(=O)c1ccccc1NC(=O)c1ccc(-c2ccccc2)cc1	Activity	Toxic
O=C(O)CCCNC(=O)c1ccccc1NC(=O)C(c1ccccc1)c1ccccc1	Activity	Toxic

* * *

Biological target: Bile acid receptor (Homo sapiens) (UniProt Q96RI1)
Assay: Agonist activity at human FXR expressed in human HeLa cells assessed as transactivation at 30 uM after 24 hrs by luciferase reporter gene assay relative to GW4064
Type: cell-based
Calls of active or inactive are those of the source. The rule behind the calls is not given here.
measured.property: max activation

mol	max activation
Cc1ccc(C(=O)Nc2ccccc2C(=O)NCCCC(=O)O)cc1	11%
O=C(O)CCCNC(=O)c1ccccc1NC(=O)CC(c1ccccc1)c1ccccc1	inactive
O=C(O)CCCNCc1ccccc1NC(=O)c1ccc2ccccc2c1	inactive
O=C(O)CCCNC(=O)c1ccccc1NC(=O)c1ccccc1-c1ccccc1	inactive
CN(CCCC(=O)O)C(=O)c1ccccc1NC(=O)c1ccc2ccccc2c1	inactive

Data request: Give the measured max activation of `O=C(O)CCCNC(=O)c1ccccc1NCc1ccc2ccccc2c1` .
Data returned: inactive
